Origin of values: patent EP0703904B1

- system.tested: RMA K^+ Channel (Oryctolagus cuniculus, UniProt P82451+Q8WMQ7)
- Sequence (P82451 whole entry): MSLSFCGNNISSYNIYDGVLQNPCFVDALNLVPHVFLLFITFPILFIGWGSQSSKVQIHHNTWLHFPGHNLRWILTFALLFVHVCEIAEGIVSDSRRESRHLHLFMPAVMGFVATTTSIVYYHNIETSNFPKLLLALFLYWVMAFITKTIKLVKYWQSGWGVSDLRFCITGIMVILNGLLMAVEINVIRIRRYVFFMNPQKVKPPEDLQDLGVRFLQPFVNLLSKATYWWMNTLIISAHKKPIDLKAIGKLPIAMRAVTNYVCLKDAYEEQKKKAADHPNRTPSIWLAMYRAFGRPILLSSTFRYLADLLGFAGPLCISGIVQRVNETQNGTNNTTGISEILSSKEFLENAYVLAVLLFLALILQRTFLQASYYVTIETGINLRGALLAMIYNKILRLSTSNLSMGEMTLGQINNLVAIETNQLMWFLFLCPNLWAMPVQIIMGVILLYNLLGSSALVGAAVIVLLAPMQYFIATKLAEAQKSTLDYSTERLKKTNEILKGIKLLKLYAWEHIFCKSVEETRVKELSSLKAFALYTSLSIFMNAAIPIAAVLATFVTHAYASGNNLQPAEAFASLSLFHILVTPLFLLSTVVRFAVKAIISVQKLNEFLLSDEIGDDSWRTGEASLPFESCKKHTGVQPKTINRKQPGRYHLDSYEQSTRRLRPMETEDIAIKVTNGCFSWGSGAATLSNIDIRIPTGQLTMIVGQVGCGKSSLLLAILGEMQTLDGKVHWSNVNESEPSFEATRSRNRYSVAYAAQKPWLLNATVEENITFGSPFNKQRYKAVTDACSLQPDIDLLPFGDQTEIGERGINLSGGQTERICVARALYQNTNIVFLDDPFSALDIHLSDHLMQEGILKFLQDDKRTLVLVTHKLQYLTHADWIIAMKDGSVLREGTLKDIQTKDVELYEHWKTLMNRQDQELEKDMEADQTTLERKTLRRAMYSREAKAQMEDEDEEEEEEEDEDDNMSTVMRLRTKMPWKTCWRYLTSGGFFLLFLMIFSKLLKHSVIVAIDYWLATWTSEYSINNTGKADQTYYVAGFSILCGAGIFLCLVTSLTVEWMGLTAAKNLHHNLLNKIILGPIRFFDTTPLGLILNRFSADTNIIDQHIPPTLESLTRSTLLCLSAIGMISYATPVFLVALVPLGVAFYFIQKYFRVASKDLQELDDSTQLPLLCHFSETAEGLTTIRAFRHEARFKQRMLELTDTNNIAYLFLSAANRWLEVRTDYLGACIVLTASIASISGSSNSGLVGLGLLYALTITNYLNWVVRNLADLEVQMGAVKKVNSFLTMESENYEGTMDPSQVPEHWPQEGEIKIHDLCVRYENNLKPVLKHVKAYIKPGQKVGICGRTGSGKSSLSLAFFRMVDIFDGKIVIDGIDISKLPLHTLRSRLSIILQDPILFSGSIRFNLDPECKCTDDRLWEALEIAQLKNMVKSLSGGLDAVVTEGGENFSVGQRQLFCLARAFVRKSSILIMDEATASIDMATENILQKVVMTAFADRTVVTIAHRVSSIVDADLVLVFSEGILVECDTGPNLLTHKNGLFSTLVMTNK
- Sequence (Q8WMQ7 1-424): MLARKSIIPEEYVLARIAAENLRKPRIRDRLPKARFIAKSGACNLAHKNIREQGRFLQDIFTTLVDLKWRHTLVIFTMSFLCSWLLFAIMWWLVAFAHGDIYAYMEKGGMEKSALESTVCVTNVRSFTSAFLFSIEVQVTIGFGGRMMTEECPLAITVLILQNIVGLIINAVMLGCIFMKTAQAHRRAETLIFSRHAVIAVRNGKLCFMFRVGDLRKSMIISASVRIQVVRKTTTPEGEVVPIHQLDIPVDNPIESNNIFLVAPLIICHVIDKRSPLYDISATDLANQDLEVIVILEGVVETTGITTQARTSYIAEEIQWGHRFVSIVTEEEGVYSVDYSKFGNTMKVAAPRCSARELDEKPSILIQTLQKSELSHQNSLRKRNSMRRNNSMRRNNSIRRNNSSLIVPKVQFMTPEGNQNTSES
- assay.remarks: Inhibition of pinacidil-induced relaxation of norepinephrine-contracted isolated rabbit mesenteric artery (RMA) rings
- Assay type: cell-based
- condition.info: inhibitor 5 µM; pinacidil 1 µM; norepinephrine 5 µM contracted rings; mean ± sem; relaxation at 15 minutes versus control; number of rings in brackets; read-out: RMA K^+ Channel Antagonism % I at 5 µM
assay.metric: inhibition at 5 µM (%)

Observe how each entry below is paired with its result.
C[C@@H](NC(=NC#N)Nc1cncnc1)c1ccccc1 : 81.7
N#CN=C(NCC(c1ccccc1)c1ccccc1)Nc1cccnc1 [Control] : 0

[I] CC(N/C(=N\C#N)Nc1ccncc1)C(C)(C)C (stereo not shown)
[II] N#CN=C(Nc1cnc(N)nc1)NC1(c2ccccc2)CCC1
Query string: Would you let me know which has the greater inhibition at 5 µM value, I or II ? Pick one; state its label.
Result string: II
